# ASSAY_TEXT: NCI Yeast Anticancer Drug Screen. Data for the mlh1 rad18 strain (AID 175)
# RUN_CONDITIONS: S. cerevisiae mlh1 rad18 strain growth inhibition; at 5.0 µM (retest, dose inferred, filed as 0.5); hits give high values
# Protocol: Growth inhibition of yeast strains with defined genetic alterations is measured as a screen for potential anti-cancer activity. Selected strains with alterations in DNA damage repair or cell cycle control were exposed to compounds and growth inhibition was measured relative to vehicle treated controls. The strain used in this assay is mlh1 rad18
This is part of a sample that, as a whole, favours compounds with a hit. Of some 79,000 tested, about 15% had one in any assay. Calls of active or inactive are those of the source. Rule as the data show it: active = growth inhibition above about 70%; inactive = the rest.
Below, each entry is listed with its recorded growth inhibition.

Worked examples, 5 molecules total:
COc1ccc(CCNC(=S)/N=C\C(C(=O)c2ccccc2)=C(\O)c2ccccc2)cc1OC = 3% (inactive)
CC(=O)N(C)c1ccc2c(c1)Cc1ccccc1-2 = -2% (inactive)
O=C(CN1CCOCC1)Nc1nc(-c2ccc(Cl)cc2)cs1 = 76% (active)
CC1CCN(C(=S)NNC(C)c2cc3ccccc3cn2)CC1 (stereo not given) = 50% (inactive)
Cc1cc(N/N=C(\c2ccccc2)c2ccccn2)nc2ccccc12 = 25% (inactive)

Reported growth inhibition, molecule Fc1ccc(NC2=NCCN=C(Nc3ccc(F)cc3)SS2)cc1 : ____ 29% (inactive)

Look at this molecule and give its reported growth inhibition. [Ce+3].[Cl-].[O-]/N=C(\c1ccccc1)c1ccccn1.[O-]/N=C(\c1ccccc1)c1ccccn1.[O-]/N=C(\c1ccccc1)c1ccccn1 39% (inactive)

Given CCc1nc2c(O)ccc(O)c2nc1C , state its recorded growth inhibition. -107% (inactive)

If you can, please state the reported growth inhibition value of ClCc1ccc(OCc2ccccc2)c(OCc2ccccc2)c1 . 17% (inactive)

Look up growth inhibition: O=C(/C=C(\C(=O)c1ccccc1)N(/C(=C/C(=O)c1ccccc1)C(=O)c1ccccc1)c1ccccc1)c1ccccc1 0% (inactive)
